Test system: Shigella flexneri
Experiment Notes: growth AUC normalised to DMSO control (fraction of control); higher = less growth inhibition, active = hit call of the paper;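 active = AUC significantly below DMSO controls by Student t-fit with adjusted P under 0.01; inactive = not significantly reduced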
Condition Parameters: 20 µM
Structures can show the parent of a compound that is named as a salt.
Outcomes: active, inactive

N=C(N)NC(=N)NCCc1ccccc1 [Phenformin hydrochloride] : inactive
C=C(CC)C(=O)c1ccc(OCC(=O)O)c(Cl)c1Cl : inactive
CCC1(C)CC(=O)NC1=O (configuration not stated) [Ethosuximide] : inactive
COc1ccc2c(c1)c(CC(=O)O)c(C)n2C(=O)c1ccc(Cl)cc1 : inactive
Cc1c(Cl)cccc1Nc1ccccc1C(=O)O : inactive
CC(C)NCC(O)COc1ccc(CCOCC2CC2)cc1 (configuration not stated) [Betaxolol hydrochloride] : inactive
CCOc1ccc2ccccc2c1C(=O)N[C@@H]1C(=O)N2[C@@H]1SC(C)(C)[C@@H]2C(=O)O [Nafcillin sodium salt monohydrate] : inactive
Nc1ccc(S(N)(=O)=O)cc1 [Sulfanilamide] : inactive
Cc1onc(-c2c(Cl)cccc2Cl)c1C(=O)N[C@@H]1C(=O)N2[C@@H]1SC(C)(C)[C@@H]2C(=O)O [Dicloxacillin sodium salt hydrate] : inactive
CS(=O)(=O)OCCCCOS(C)(=O)=O : inactive
CCCCN(CCCC)CCC(O)c1cc2c(Cl)cc(Cl)cc2c2cc(C(F)(F)F)ccc12 (configuration not stated) [Halofantrine hydrochloride] : inactive
Nc1ccc(S(=O)(=O)Nc2ncccn2)cc1 : inactive
COc1cc(N)c(Cl)cc1C(=O)NC1CCN(Cc2ccccc2)CC1 [Clebopride maleate] : inactive
CO[C@@]1(NC(=O)C(C(=O)O)c2ccc(O)cc2)C(=O)N2C(C(=O)O)=C(CSc3nnnn3C)CO[C@@H]21 (some centres not stated) [Moxalactam disodium salt] : active
CN[C@H]1CC[C@@H](c2ccc(Cl)c(Cl)c2)c2ccccc21 : inactive
O=C(O)[C@H]1/C(=C/CO)O[C@@H]2CC(=O)N21 [Clavulanate potassium salt] : inactive
Cc1nnc(SCC2=C(C(=O)O)N3C(=O)[C@@H](NC(=O)Cn4cnnn4)[C@H]3SC2)s1 [Cefazolin sodium salt] : active
